biological target: GABARAP, O95166; test: median log2 fold change of GCK-ALFA target abundance (FLAG IP / Myc IP barcode read proportion) (log2 ratio); each designed protein is fused to an ALFA-tag nanobody in HEK293 cells to bring the named protein to FLAG-tagged glucokinase (GCK); Myc marks an untargeted standard; higher = target protein stabilised (more abundant); settings: target protein: 3xFLAG-MCP-GCK-ALFA reporter; HEK293 landing pad (RPLP)
Sequence (O95166 whole entry, the tested form may be a part): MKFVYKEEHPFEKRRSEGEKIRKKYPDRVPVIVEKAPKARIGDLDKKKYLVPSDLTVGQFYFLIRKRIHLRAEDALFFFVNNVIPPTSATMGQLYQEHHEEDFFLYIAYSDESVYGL
Over roughly 4,500 sequences, “median log2 fold change of GCK-ALFA target abundance (FLAG IP / Myc IP barcode read proportion)” has its median near 0.078; the lowest 2% begin near -0.6. The full list was thinned out, with the lowest values kept by preference.
Measured property: median log2 fold change
Reply with the value as a number alone.

# Binder, Measured property, Value measured
rows = [
    ("GBRAP_160_3991 (protein) SEEIEKLKEEFKKLFDEMLELAEGESPEERLAVVRVMMGEVILLAEESGVVSDEAEEEIAKIMDELVATVEANPDMSMEELKALVEEALKKIFEVIDKYS", "median log2 fold change", -0.567),
]

Next item in the queue.
Query: Entry under review: GBRAP_80_6795 (protein) AEERLKKALEEIEKLDKELAKKVKEIVEIAREMGVSTEDLADFAEAIAELLKLDKEKARELVEELKEELEELKKEGNKAEAEAAVRVYAGEALLEVEELE . Reported median log2 fold change?
Reply: 0.0713
